Target: GHS-R1a (Homo sapiens, UniProt Q92847)
Construct: expressed in transfected cells; host or cells: HEK293
Sequence (Q92847 whole entry): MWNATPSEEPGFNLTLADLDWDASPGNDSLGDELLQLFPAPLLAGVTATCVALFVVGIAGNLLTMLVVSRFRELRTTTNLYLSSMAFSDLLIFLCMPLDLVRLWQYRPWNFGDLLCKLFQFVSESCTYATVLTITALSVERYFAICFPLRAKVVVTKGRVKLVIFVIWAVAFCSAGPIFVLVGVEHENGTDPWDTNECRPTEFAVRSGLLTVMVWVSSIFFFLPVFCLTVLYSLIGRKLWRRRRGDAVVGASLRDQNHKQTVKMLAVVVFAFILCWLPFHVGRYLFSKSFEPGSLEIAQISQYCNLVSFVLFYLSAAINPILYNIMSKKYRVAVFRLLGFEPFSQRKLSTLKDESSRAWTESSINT
Assay: Radioligand binding assay, displacement of [125I-His9]ghrelin(1-28)
Details: GHS-R1a transfected HEK293 cells, [125I-His9]ghrelin(1-28) radioligand, determined in applicant's lab
pIC50: −log10 of the molar value.
Rule: pIC50 of 8 or more gives met; anything lower gives not met.

>  <molecule>
CC(C)N1CCC[C@H](Cn2c(-c3ccc(OCCO)cc3F)nc3ccc(Oc4ccc(F)cn4)cc3c2=O)C1 [Compound 15a]

>  <group>
not met

$$$$
>  <molecule>
Cc1ccccc1-c1nc2ccc(Oc3ccc(Oc4ccc(F)cn4)nc3)cc2c(=O)n1C[C@H]1CCCNC1

>  <group>
not met

$$$$
>  <molecule>
Cc1ccccc1-c1nc2ccc(Oc3ccc(F)nc3)cc2c(=O)n1C[C@H]1CCCNC1

>  <group>
not met

$$$$
>  <molecule>
Cc1ccccc1-c1nc2ccc(Oc3ccc(F)cc3)cc2c(=O)n1C[C@H]1CCCN(C(C)C)C1 [Compound 5f, reference compound]

>  <group>
met

$$$$
>  <molecule>
CC(C)N1CCC[C@H](Cn2c(-c3ccccc3F)nc3ccc(Oc4ccc5ncsc5c4)cc3c2=O)C1 [Compound 10b]

>  <group>
met

$$$$
>  <molecule>
Cc1ccccc1-c1nc2ccc(Oc3ccc(F)cc3)cc2c(=O)n1C[C@H]1CCCN(CCF)C1

>  <group>
not met

$$$$
>  <molecule>
CC(C)N1CCC[C@H](Cn2c(-c3ccc(OCCF)cc3F)nc3ccc(Oc4ccc(F)cc4)cc3c2=O)C1 [Compound 17b]

>  <group>
met

$$$$

Consider the additional molecule presented here.
Does the reported pIC50 for Cc1ccccc1-c1nc2ccc(Oc3ccc(F)cc3)cc2c(=O)n1C[C@H]1CCCNC1 [Compound 4a, reference compound] fall at or above the 8 mark? met

Each recorded value in this set is attributed to patent US11186571B2.
